Each recorded value in this set is attributed to PubChem BioAssay (NCI).

Tested on: SF-295 CNS
METHOD_NOTES: NCI tumour cell line growth inhibition, 48 h
Assign class by TGI: not lower than 30 µM means TRUE; lower than 30 µM means FALSE.

(Q) Check this molecule for TGI at or above 30 µM: CC(=O)NNc1nc(C)c(C(/C=C/c2ccc(Cl)cc2)=N\NS(=O)(=O)c2ccc(C)cc2)s1
(A) TRUE

(Q) Is it the case that COc1cccc(/C=C/C(=O)c2ccc(Cl)cc2Cl)c1OC has TGI reaching or exceeding 30 µM?
(A) TRUE

(Q) Hello, I need to know if CC1=C(C(=O)Nc2ccccc2C)C(c2ccc([N+](=O)[O-])cc2)C(C(=O)Nc2ccccc2C)=C(C)N1 has measured TGI not below 30 µM. Thanks!
(A) TRUE

(Q) Quick check, TGI >= 30 µM? NCCNCC(O)CO (centres undefined)
(A) TRUE

(Q) Is it the case that COC(=O)[C@]12CC[C@@H](C)[C@H](C)[C@@H]1C1=CC[C@@H]3[C@@]4(C)C(C=O)=C[C@@](C)(COC(C)=O)[C@@H]4[C@H](O)C[C@@]3(C)[C@]1(C)CC2 has TGI reaching or exceeding 30 µM?
(A) FALSE

(Q) Check this molecule for TGI at or above 30 µM: O=c1nc2n(cc1/C=C\Br)C1CC(O)C(CO2)O1 (centres undefined)
(A) TRUE

(Q) Given CN(C)CCNCc1c2ccccc2c(CNCCN(C)C)c2ccccc12 , state whether its TGI is at least 30 µM.
(A) TRUE

(Q) Decide: TGI of COC(=O)NCCc1[nH]nc2c1C(=O)C=C(OC)C2=O >= 30 µM?
(A) TRUE

(Q) # check: TGI of CCC(=O)OCc1ccc2oc(=O)c(C(=O)Oc3cncc(Cl)c3)cc2c1 is greater than or equal to 30 µM
(A) TRUE

(Q) Is reported TGI greater than or equal to 30 µM here: Cc1nc2c(nc1C)-c1c(c3c(n1Cc1ccccc1)C(=O)CCC3)C(=O)C2=O
(A) TRUE

(Q) Quick check: does CCCCCCCCOc1ccc(/C=N/Nc2cc(C)nc3ccc(Cl)cc23)cc1 have TGI greater than or equal to 30 µM?
(A) FALSE

(Q) Please check the record Clc1ccc(OCc2nnc3sc(-c4ccc(-c5ccc(Cl)cc5Cl)o4)nn23)c(Cl)c1 and state if its TGI is at or above 30 µM.
(A) TRUE

(Q) Does the molecule Oc1cc(Cl)cc2cc(Br)cnc12 have recorded TGI that is 30 µM or more?
(A) TRUE

(Q) # check: TGI of C/C=C(\C)C(=O)O[C@@H]1C(O)[C@H]2OC(COC(=O)CCC(=O)CCCCCC[C@H](CCCCC)O[C@@H]3OC(C)[C@H](OC(C)=O)C(O)[C@H]3O2)[C@H]1OC(=O)/C=C/c1ccccc1 (some centres undefined) is greater than or equal to 30 µM
(A) FALSE

(Q) Could you please find out whether N#C/C(=C/C=C(\Cl)c1ccc(Cl)cc1)C(N)=O has TGI that meets 30 µM or exceeds it?
(A) FALSE

(Q) Say whether C[n+]1c2ccccc2c(CNC(CCC(N)=O)C(=O)O)c2ccccc21 (centres undefined) shows TGI of 30 µM or more.
(A) FALSE

----------
Tested on: HT29 colon
METHOD_NOTES: NCI tumour cell line growth inhibition, 48 h
MEASURED_ATTRIBUTE: TGI (µM)
Supply the numeric figure in µM, leaving out any unit text.

(Q) If you can, please state the reported TGI value of CC[N+](CC)=c1ccc2nc3c(cc(NCc4ccccc4)c4ccccc43)oc-2c1 .
(A) 0.773

(Q) What TGI value was documented for this compound, C=C(CNCCc1ccc(O)cc1)[C@@H]1CC[C@]2(CO)CC[C@]3(C)[C@H](CC[C@@H]4[C@@]5(C)CCC(=O)C(C)(C)[C@@H]5CC[C@]43C)[C@@H]12 ?
(A) 3.08

(Q) // query TGI value for entry COc1ccc2nc(NCCCNCCO)c3sc4ccc(F)cc4c(=O)c3c2c1
(A) 3.23

----------
System: KM12 colon
METHOD_NOTES: NCI tumour cell line growth inhibition, 48 h
Assignment: determine reported TGI for the given compounds.

(Q) Endpoint output: TGI of C/C=C(/C)C(=O)O[C@@H]1c2c(C)coc2C[C@H]2CC[C@H](O)[C@H](C)[C@]21C . Value?
(A) > 100 µM

(Q) Fill in the blank: the reported TGI of CC1=C(C(=O)Nc2ccccc2C)C(c2ccc([N+](=O)[O-])cc2)C(C(=O)Nc2ccccc2C)=C(C)N1 is ____.
(A) > 100 µM

(Q) For the compound Nc1c(C(=O)c2cccc(OCCN3CCOCC3)c2)cnn1-c1ccc(F)cc1 , what TGI is on record?
(A) > 25 µM

(Q) # TGI lookup, item CN(C)CCNC(=O)c1cccc2cc3ccccc3nc12
(A) 10.2 µM

(Q) Fill in: TGI of COC1=CC(=O)C(O)=C(C[C@@]2(C)[C@@H]3CCC[C@H](COC(=O)CCCCCNC(=O)OC(C)(C)C)[C@@]3(C)CC[C@@H]2C)C1=O is ___
(A) > 10 µM

(Q) Consider the compound shown here: C#CC(O)/C=C/CCCCCCC#CC/C=C\CC#CCCCCCC/C=C/C(O)C#C (stereo not drawn) What is its recorded TGI?
(A) 5.29 µM

(Q) So what's the measured TGI for this one? OC(c1cccs1)c1cc2ccccc2s1 (stereo not drawn)
(A) > 10 µM

(Q) Need TGI of N#CC1C(=O)Nc2sc(C(=O)c3ccc(Br)cc3)c(N)c2C12CCCCC2 (stereo not drawn) , thanks.
(A) 44.1 µM

(Q) Give its TGI value. Item: COc1ccc(C2NCCc3c2[nH]c2ccccc32)cc1CN1CCN(c2ccc(F)cc2)CC1 (stereo not drawn)
(A) 3.33 µM

(Q) # input compound: O=C1C=CC(=O)C1(Br)Br ; wanted: its TGI
(A) 29.4 µM

(Q) // returns reported TGI for input COc1cc2c3c(n(CCCN)c(=O)c2cc1OC)-c1ccc(F)cc1C3=O
(A) 20.3 µM

(Q) What value of measured TGI is listed for C=C(CNCCc1ccc(O)cc1)[C@@H]1CC[C@]2(CO)CC[C@]3(C)[C@H](CC[C@@H]4[C@@]5(C)CCC(=O)C(C)(C)[C@@H]5CC[C@]43C)[C@@H]12 ?
(A) 3.61 µM

(Q) // query TGI value for entry O=S(=O)(NC(=S)Nc1ccccc1)c1ccc(N2N=C3c4ccccc4CC3C2c2cccs2)cc1 (stereo not drawn)
(A) > 100 µM

(Q) Request the reported TGI associated with Cc1ccc(NC(=O)CC(=O)n2nc(-c3ccccc3)c(N=Nc3ccc(Cl)cc3)c2-c2ccccc2)cc1
(A) > 100 µM

(Q) Which TGI value is on record for CC1=C/C(=N/N2C(=O)/C(=C/c3ccc(Cl)cc3)N=C2c2ccccc2)CC(C)(C)C1 ?
(A) > 100 µM

(Q) Which TGI value is on record for Cc1ccc(S(=O)(=O)N2CCC3(C(/C=C/c4ccccc4)=Nc4ccccc43)C2c2ccccc2)cc1 (stereo not drawn) ?
(A) > 100 µM

(Q) // returns reported TGI for input CC(C)(C)c1cc(-c2ccc(-c3cc(C(C)(C)C)c(O)c(C(C)(C)C)c3)cc2)cc(C(C)(C)C)c1O
(A) > 100 µM

(Q) Which measured TGI value corresponds to C=C1C(=O)OC2/C=C(\C)C(O)CC(O)C(C)(O)CC(OC(=O)/C(C)=C/C)C12 (stereo not drawn) ?
(A) > 75.8 µM

----------
Test system: SF-539 CNS
METHOD_NOTES: NCI tumour cell line growth inhibition, 48 h; in the data active = GI50 below about 0.43 µM; inactive = the rest
Thanks in advance; please answer with one of these: active, inactive

(Q) Tell me the assay call for CCCCCCCCCCCCCC1=NCC[N+]1(CCO)Cc1ccccc1 (configuration not stated) please.
(A) inactive

(Q) Given Nc1nc2c(c3ncccc13)C(c1cccc(Cl)c1)Cc1ncccc1-2 (configuration not stated) , state the outcome it received in this test.
(A) inactive

(Q) For this molecule, state the assay outcome: Nc1c(C(=O)c2cccc(OCCN3CCOCC3)c2)cnn1-c1ccc(F)cc1
(A) inactive

(Q) Would you mind telling me which call this test gave COc1cc(NN=C(c2ccc(O)cc2)c2ccc(O)cc2)c([N+](=O)[O-])cc1[N+](=O)[O-] ?
(A) inactive

(Q) Test call, this molecule: Cc1cc(S(=O)(=O)Nc2nc3ccsc3c(=O)n2Cc2ccco2)c(S)cc1Cl
(A) inactive

(Q) What classification did Nc1nc2ccc([C@@H]3Nc4ccc5[nH]ncc5c4[C@H]4[C@H]5CCC(C5)[C@H]43)cc2s1 end up with in this test?
(A) inactive

(Q) Can you look up the reported call for O=C(Nc1cnn2ccc(N3CCC[C@@H]3c3cc(F)ccc3F)nc12)N1CC[C@H](O)C1 for me?
(A) inactive

(Q) What did this assay record as the result for CN1CCN(CC(=O)Nc2ccc3ncnc(Nc4ccc(Oc5cccc(C(F)(F)F)c5)c(Cl)c4)c3c2)CC1 ?
(A) inactive

(Q) Assay outcome for COC(=O)c1ccc(=O)c2nc3/c(=C/O)c(O)cc(=O)c3[nH]c12 : what was it?
(A) inactive

(Q) What was the test verdict on C=C1C(=O)O[C@H]2[C@H]1CC/C(COC(=O)C(=O)c1c[nH]c3ccc(OC)cc13)=C\CC[C@@]1(C)O[C@@H]21 ?
(A) inactive

(Q) Assay result, entry CC(C)(C)OC(=O)NCCCCCCCCn1c2c(c3ccccc3c1=O)C(=O)c1ccccc1-2 — outcome?
(A) inactive

(Q) Recorded test outcome, item C/C=C(\C)C(=O)O[C@@H]1C(O)[C@H]2OC(COC(=O)CCC(=O)CCCCCC[C@H](CCCCC)O[C@@H]3OC(C)[C@H](OC(C)=O)C(O)[C@H]3O2)[C@H]1OC(=O)/C=C/c1ccccc1 (some centres not stated)
(A) active
